System: HEK293 cells overexpressing APOL1 G2
Assay: APOL1 G2 HEK293 cell rescue assay (reversal of cell death caused by overexpression of APOL1)
Assay type: cell-based
Conditions: Homo sapiens, HEK293, HEK293 overexpressing APOL1 G2; geometric mean of at least 2 assay runs; † = single assay run
pEC50: −log10 of the molar value.
Observed Property: pEC50

[[record]]
molecule = "CN=S(C)(=O)c1ccc(OCCN2CCC3(CC2)C(=O)Nc2ccc(Cl)cc23)cc1 (centres unmarked) [Compound 147]"
observed_property = "pEC50"
reported_result = 7.20

[[record]]
molecule = "CS(=O)(=O)c1ccc(OCCN2CCC3(CC2)C(=O)Nc2c(Cl)cc(C#N)cc23)cc1 [Compound 8]"
observed_property = "pEC50"
reported_result = 6.22

[[record]]
molecule = "C[C@]1(O)C[C@H](N2C(=O)CCc3cc(OCCN4CCC5(CC4)C(=O)Nc4ccc(Cl)cc45)cnc32)C1 (single isomer, unassigned) [Compound 307]"
observed_property = "pEC50"
reported_result = 7.69

[[record]]
molecule = "CNC(=O)c1ccc(OCCN2CCC3(CC2)C(=O)Nc2ccc(Cl)cc23)cc1 [Compound 52]"
observed_property = "pEC50"
reported_result = 6.67

[[record]]
molecule = "Cc1nc(-c2ccc(OCCN3CCC4(CC3)C(=O)N(C)c3ccccc34)cc2)no1 [Compound 35]"
observed_property = "pEC50"
reported_result = 6.24

[[record]]
molecule = "Cn1ncc2cc(OCCN3CCC4(CC3)C(=O)Nc3ccccc34)ccc21 [Compound 70]"
observed_property = "pEC50"
reported_result = 5.98

[[record]]
molecule = "CS(=O)(=O)C1(c2ncc(OCCN3CCC4(CC3)C(=O)Nc3ccc(OC(F)F)cc34)cn2)CC1 [Compound 6]"
observed_property = "pEC50"
reported_result = 6.92

[[record]]
molecule = "CN(C)C(=O)C1(c2ccc(OCCN3CCC4(CC3)C(=O)Nc3ccc(C#N)cc34)cc2)COC1 [Compound 254]"
observed_property = "pEC50"
reported_result = 6.76

[[record]]
molecule = "CN(c1c(F)cc(OCCN2CCC3(CC2)C(=O)Nc2ccc(C#N)cc23)cc1F)S(C)(=O)=O [Compound 128]"
observed_property = "pEC50"
reported_result = 7.37

[[record]]
molecule = "Cc1cc(OCCN2CCC3(CC2)C(=O)Nc2ccc(C#N)cc23)cnc1S(C)(=O)=O [Compound 140]"
observed_property = "pEC50"
reported_result = 6.76

[[record]]
molecule = "CC(O)c1ncc(OCCN2CCC3(CC2)C(=O)Nc2ccc(Cl)cc23)cn1 (single isomer, unassigned) [Compound 285]"
observed_property = "pEC50"
reported_result = 6.70

